Values compiled from ChEMBL document CHEMBL1133985.

- TGT: Glutamate receptor ionotropic, AMPA (Rattus norvegicus) (UniProt P19491+P19492+P19493+P19490)
- ASSAY_NAME: Antagonistic activity against Ca++permeable Ionotropic glutamate receptor AMPA as concentration of compound that reduces the inward current induced by kainate by 50% in Xenopus oocytes
- Type: functional, cell-based
- RUN_PARAMETERS: Oocyte; concentration not given here
PROPERTY_LABEL: inhibition (%)
Report as a plain number; the unit % is understood.

compound=O=C(Cc1cccc2ccccc12)N1CCC(CCCCCCNCC2CCCCC2)CC1 property_label=inhibition value_unit=% measured_result=42
compound=O=C(Cc1cccc2ccccc12)N1CCC(CNCCCCNCC2CCOCC2)CC1 property_label=inhibition value_unit=% measured_result=35
compound=O=C(Cc1cccc2ccccc12)N1CCC(CNCCCCCCC2CCCCC2)CC1 property_label=inhibition value_unit=% measured_result=1
compound=NCCCCNCC1CCN(C(=O)Cc2cccc3ccccc23)CC1 property_label=inhibition value_unit=% measured_result=54

Proceed to the following item.
Entry under review: O=C(Cc1cccc2ccccc12)N1CCC(CNCCCCNCCCO)CC1 . Reported inhibition?
44
